tested on: SUDV (glycoprotein, VSV pseudotype); assay: microbe, parasite or virus in culture; assay type: cell-based, Sudan ebolavirus; conditions: Vesicular stomatitis virus, Vero, 24 h, read-out: EC50 Pseudotype Assays SUDV
This listing pairs molecules with measured pEC50.
Keep in mind that pEC50 stands for -log10 of concentration in molar terms.

Known pEC50 results, listed for orientation:
CC12CC3CC(C(=O)N4CCC5(CC5N)C4)(C1)CC(c1ccccc1)(C3)C2 (racemic) [Example A41] : 6.17
CC12CC3CC(C(=O)N4CC5(CCNCC5)C4)(C1)CC(c1ccccc1)(C3)C2 (racemic) [Example A44] : 6.61
C[C@@]12CC3CC(C(=O)N4CCC(N)CC4)(C1)C[C@](c1ccccc1)(C3)C2 [Example C7] : 6.47

Query: Entry CCC12CC3CC(C(=O)NC4CCC5(CC4)CNC5)(C1)CC(c1ccccc1)(C3)C2 (racemic) [Example A27] has what pEC50?
Reply: 5.76

Query: Queued: CC12CC3CC(C(=O)N4C5CCC4CC(N)C5)(C1)CC(c1ccccc1)(C3)C2 (racemic) [Example A42]
Reply: 6.34

Query: Also N[C@H]1CC[C@@H](NC(=O)C23CC4CC(CF)(C2)CC(c2ccccc2)(C4)C3)CC1 (mixture of isomers) [Example A28] , if possible.
Reply: 5.81

Query: Next record, please: CCC12CC3CC(C(=O)N4CCC(N)CC4)(C1)CC(c1ccccc1)(C3)C2 (racemic) [Example A32]
Reply: 6.67

Query: Next molecule: CC12CC3CC(C(=O)NC45CCN(CC4)CC5)(C1)CC(c1ccccc1)(C3)C2 (racemic) [Example A60]
Reply: 6.48

Query: Quick one: C[C@]12CC3CC(C(=O)N[C@H]4CCNC[C@@H]4F)(C1)C[C@@](c1ccccc1)(C3)C2 [Example B6]
Reply: 6.49

* * *

Attribute: Liver Microsome Stability % Remaining after 60 Minutes, Human
settings: microsomes, 1 h

Completed entries (count: 3):
C[C@@]12CC3CC(C(=O)NC4CCNCC4)(CC(c4ccccc4)(C3)C1)C2 [Example B1] : 81%
C[C@]12CC3CC(C(=O)N[C@H]4CC[C@H](CN)CC4)(C1)C[C@@](c1ccccc1)(C3)C2 [Example B3] : 83%
C[C@H]1C[C@@H](NC(=O)C23CC4C[C@@](C)(C2)C[C@](c2ccccc2)(C4)C3)CCN1 [Example B4] : 82%

Pending compound:
Query: Give the measured Liver Microsome Stability % Remaining after 60 Minutes, Human of C[C@]12CC3CC(C(=O)N4CCC(N)CC4)(C1)C[C@@](c1ccccc1)(C3)C2 [Example B7] .
Reply: 86%

* * *

EC50 values, listed per item
system: MARV (full-length glycoprotein, VSV pseudotype); assay: microbe, parasite or virus in culture; type: cell-based, Marburg marburgvirus; settings: Vesicular stomatitis virus, Vero, 24 h, read-out: EC50 Pseudotype Assays MARV

Before answering, review these 2 worked examples.
CC12CC3CC(C(=O)NC4CC5CC4CN5)(C1)CC(c1ccccc1)(C3)C2 (racemic) : > 1000 nM
NC1CCN(CC23CC4CC(C2)CC(c2ccccc2)(C4)C3)CC1 : > 3000 nM

Query: Missing value: EC50, MARV (full-length glycoprotein, VSV pseudotype), entry `C[C@]12CC3CC(C(=O)N[C@H]4CCNC[C@@H]4F)(C1)C[C@@](c1ccccc1)(C3)C2` . Fill in?
Reply: > 3000 nM

Query: What do we get for N[C@H]1CC[C@@H](NC(=O)C23CC4CC(CF)(C2)CC(c2ccccc2)(C4)C3)CC1 (mixture of isomers) ?
Reply: > 10000 nM

Query: Same lookup for `C[C@H]1C[C@@H](NC(=O)C23CC4C[C@@](C)(C2)C[C@](c2ccccc2)(C4)C3)CCN1` , please.
Reply: > 3000 nM
